Reference for the values: patent US20240059758A1

# target-desc: receptor binding domain (RBD) of the S1-subunit of SARS-CoV-2 glycoprotein S (SARS-CoV-2, UniProt P0DTC2 319-541)
# procedure-details: ACE2:RBD competition, antibody at 5 µg/ml
Listing: ACE2 bound to RBD at 5 µg/ml antibody of selected binders
recorded-metric: ACE2 bound to RBD at 5 µg/ml antibody

binder | result
YU505-E01 (antibody, V domains shown) VH: QVQLVQSGAEVKKPGSSVKVSCKASGGTFSSYSIVWVRQAPGQGLEWMGGIIPIFGTTNYAQKFQGRVTITADESTSTAFMELSNLKSEDTAVYFCARSLGATRDYWGQGTLVTVSS VL: SYVLTQPPSVSEAPRQRVTISCSGSSSNIGNNAVNWYQQLPGKAPKLLIYYDDLLPSGVSDRFSGSKSGTSASLAISGLQSEDEADYYCAAWDDSLNGPVFGGGTKVTVL | < 25%
YU505-F05 (antibody, V domains shown) VH: EVQLLESGGGVVQPGRSLRLSCAASGFTFSSYGMHWVRQAPGKGLEWVAVMSYDGSKKYYADSVKGRFTISRDNSKNTLYLQMNSLRAEDTAVYYCVTQGMDVWGQGTLVTVSS VL: QSVLTQPPSVSVAPGKTARITCGGNNIGSKSVHWYQQKPGQAPVLVIYYISDRPSGIPERFSGSNSGNTATLTISRVEAGDEAAYYCHVWDSSSDHVVFGGGTKLTVL | < 30%
YU505-A01 (antibody, V domains shown) VH: QVQLVQSGAEVKKPGASVKVSCKASGYTFTSYYMHWVRQAPGQGLEWMGIINPSGGSTSYAQKFQGRVTMTRDTSTSTVYMELSSLRSEDTAVYYCARDRHYYDSSGSSQATFLFDYWGQGTLVTVSS VL: QSVLTQPPSVSGAPGQRVTISCTGSSSNIGAGYDVHWYQQLPGTAPKLLIYGNSNRPSGVPDRFSGSKSGTSASLAITGLQAEDEADYYCQSYDSSLNVFGTGTKLTVL | < 30%
YU505-A02 (antibody, V domains shown) VH: QVQLVESGAEVKKPGSSVKVSCKASGGTFSSYAISWVRQAPGQGLEWMGGIIPIFGTANYAQKFQGRVTITADESTSTAYMELSSLRSEDTAVYYCARQIWAYDSSGYPVPAEYFQHWGQGTLVTVSS VL: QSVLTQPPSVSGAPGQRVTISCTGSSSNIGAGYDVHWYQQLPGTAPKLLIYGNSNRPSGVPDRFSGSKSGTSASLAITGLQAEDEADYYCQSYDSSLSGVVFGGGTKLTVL | < 30%
